We begin with a simple list: items and their reported IC50.
# test.system: activated p38 (Homo sapiens, UniProt Q16539)
# Construct: amplify the coding region of CSBP2 cDNA using a HeLa cell library
# Sequence (Q16539 whole entry): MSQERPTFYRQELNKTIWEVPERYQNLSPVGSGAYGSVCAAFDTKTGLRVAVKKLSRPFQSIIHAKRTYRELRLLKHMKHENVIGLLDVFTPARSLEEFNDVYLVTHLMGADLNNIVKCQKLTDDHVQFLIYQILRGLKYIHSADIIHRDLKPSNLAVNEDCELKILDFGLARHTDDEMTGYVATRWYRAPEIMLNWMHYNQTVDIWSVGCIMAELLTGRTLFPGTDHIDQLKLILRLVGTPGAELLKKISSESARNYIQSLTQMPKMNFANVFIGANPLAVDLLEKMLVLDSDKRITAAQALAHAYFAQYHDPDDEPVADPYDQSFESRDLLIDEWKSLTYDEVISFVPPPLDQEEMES
# test: p38 inhibition assay: inhibition of phosphorylation of EGF receptor peptide
# study.conditions: activated p38 5 nM, EGF receptor peptide 200 μM, ATP 100 μM, 30° C, 30 minutes

Example molecules with recorded IC50:
molecule: Cc1cccc(C(=O)c2ccc(N(C(=O)C3CCCCC3)c3c(F)cccc3F)nc2)c1
IC50: ≤ 1000 nM
--
molecule: COc1cc(OC)cc(C(=O)c2ccc(Nc3c(F)cccc3F)nc2)c1
IC50: ≤ 1000 nM
--
molecule: Cc1cc(C(=O)c2ccc(N(C(=O)c3ccc(Br)cc3)c3c(F)cccc3F)nc2)ccc1Cl
IC50: ≥ 10000 nM
--
molecule: O=S(=O)(c1ccccc1)c1ccc(Nc2c(F)cccc2F)nc1
IC50: ≥ 10000 nM
--
molecule: Cc1cccc(C(=O)c2ccc(N(C(=O)c3snnc3C)c3c(F)cccc3F)nc2)c1
IC50: 1000 to 10000 nM

Query block: Item under review: O=C(c1ccc(-c2ccccc2)cc1)c1ccc(Nc2c(F)cccc2F)nc1 . Reported IC50?
Result block: ≤ 1000 nM

Query block: Item under review: Cc1cc(C(=O)c2ccc(N(C(=O)C(C)Oc3ccccc3)c3c(F)cccc3F)nc2)ccc1Cl (stereo not shown) . Reported IC50?
Result block: 1000 to 10000 nM

Query block: Item under review: O=C(c1ccc(Nc2c(F)cccc2F)nc1)c1cccc(Cl)c1 . Reported IC50?
Result block: ≤ 1000 nM

Query block: Item under review: O=C(c1ccc(N(C(=O)c2ccc(Br)cc2)c2c(F)cccc2F)nc1)c1sccc1-n1cccc1 . Reported IC50?
Result block: ≤ 1000 nM
